molecular target: T1, human C5 (human, UniProt P01031 19-673; P01031 678-1676, Beta and alpha chains are disulfide-linked and the protein is glycosylated.); assay: Biacore, captured antibody, pH 7.4, 37 C;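 further: biacore binding response of anti-C5 antibody light chain variants captured on chip with human C5 injected, ACES running buffer containing 1.2 mM CaCl₂, parent light chain antibody set to 100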
T1 construct: Either in-house recombinant C5 or plasma derived C5 (CALBIOCHEM) was used; also called recombinant human C5; plasma derived human C5
Output condition met for % binding (parent = 100) not less than 40%; output condition not met otherwise.

Some entries whose results are on file:
[
  {
    "binder": "CFP0015 15L 50A (antibody, V domains shown) VH: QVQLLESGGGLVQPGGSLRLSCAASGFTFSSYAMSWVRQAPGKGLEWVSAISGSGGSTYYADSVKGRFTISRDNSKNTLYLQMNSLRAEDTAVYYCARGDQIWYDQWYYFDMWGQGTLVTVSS VL: DIQMTQSPSSLSASVGDRVTITCRASQSIEDDLAWYQQKPGKAPKLLIYAASNLQSGVPSRFSGSGSGTDFTLTISSLQPEDFATYYCQQYDSSPLTFGQGTKVEIK",
    "assigned category": "condition met"
  },
  {
    "binder": "CFP0011 11L 30D (antibody, V domains shown) VH: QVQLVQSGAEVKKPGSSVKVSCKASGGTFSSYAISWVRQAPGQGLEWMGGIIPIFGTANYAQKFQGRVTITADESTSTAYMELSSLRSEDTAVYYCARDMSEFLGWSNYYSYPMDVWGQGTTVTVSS VL: DIQMTQSPSSLSASVGDRVTITCRASQSIDDDLAWYQQKPGKAPKLLIYHASSLQSGVPSRFSGSGSGTDFTLTISSLQPEDFATYYCQQSDNSPYTFGQGTKVEIK",
    "assigned category": "condition met"
  }
]

Given CFP0017 17L 30H (antibody, V domains shown) VH: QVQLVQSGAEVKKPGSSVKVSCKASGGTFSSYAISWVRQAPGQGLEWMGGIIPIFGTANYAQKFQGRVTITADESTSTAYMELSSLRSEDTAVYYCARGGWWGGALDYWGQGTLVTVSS VL: DIQMTQSPSSLSASVGDRVTITCRASQSIHDDLAWYQQKPGKAPKLLIYHASSLQSGVPSRFSGSGSGTDFTLTISSLQPEDFATYYCQQSDSYPLTFGQGTKVEIK , state whether its % binding (parent = 100) is at least 40%. condition met

Given CFP0018 18L 94W (antibody, V domains shown) VH: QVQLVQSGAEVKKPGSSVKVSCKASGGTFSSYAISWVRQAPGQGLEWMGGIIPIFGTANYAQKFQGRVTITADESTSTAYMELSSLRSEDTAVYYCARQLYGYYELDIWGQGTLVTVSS VL: DIQMTQSPSSLSASVGDRVTITCRASQSISDDLAWYQQKPGKAPKLLIYEASSLQSGVPSRFSGSGSGTDFTLTISSLQPEDFATYYCQQYNSWPLTFGQGTKVEIK , state whether its % binding (parent = 100) is at least 40%. condition not met

Given CFP0018 18L 93D (antibody, V domains shown) VH: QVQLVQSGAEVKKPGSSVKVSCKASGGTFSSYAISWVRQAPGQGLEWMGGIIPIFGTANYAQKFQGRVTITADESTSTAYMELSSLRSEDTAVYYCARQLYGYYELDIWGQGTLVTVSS VL: DIQMTQSPSSLSASVGDRVTITCRASQSISDDLAWYQQKPGKAPKLLIYEASSLQSGVPSRFSGSGSGTDFTLTISSLQPEDFATYYCQQYNDYPLTFGQGTKVEIK , state whether its % binding (parent = 100) is at least 40%. condition not met

Given CFP0011 11L 50D (antibody, V domains shown) VH: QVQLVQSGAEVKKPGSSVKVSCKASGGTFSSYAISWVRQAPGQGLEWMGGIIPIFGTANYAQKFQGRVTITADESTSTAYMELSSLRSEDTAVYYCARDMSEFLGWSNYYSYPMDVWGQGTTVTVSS VL: DIQMTQSPSSLSASVGDRVTITCRASQSIEDDLAWYQQKPGKAPKLLIYDASSLQSGVPSRFSGSGSGTDFTLTISSLQPEDFATYYCQQSDNSPYTFGQGTKVEIK , state whether its % binding (parent = 100) is at least 40%. condition met

Given CFP0015 15L 50T (antibody, V domains shown) VH: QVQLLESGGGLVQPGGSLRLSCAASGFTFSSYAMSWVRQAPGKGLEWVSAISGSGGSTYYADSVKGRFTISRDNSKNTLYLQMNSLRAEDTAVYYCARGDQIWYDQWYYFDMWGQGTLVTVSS VL: DIQMTQSPSSLSASVGDRVTITCRASQSIEDDLAWYQQKPGKAPKLLIYTASNLQSGVPSRFSGSGSGTDFTLTISSLQPEDFATYYCQQYDSSPLTFGQGTKVEIK , state whether its % binding (parent = 100) is at least 40%. condition not met

Given CFP0015 15L 31N (antibody, V domains shown) VH: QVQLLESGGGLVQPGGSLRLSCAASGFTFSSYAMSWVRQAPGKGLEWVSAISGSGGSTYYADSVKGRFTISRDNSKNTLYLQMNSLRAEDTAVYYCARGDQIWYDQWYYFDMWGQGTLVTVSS VL: DIQMTQSPSSLSASVGDRVTITCRASQSIENDLAWYQQKPGKAPKLLIYEASNLQSGVPSRFSGSGSGTDFTLTISSLQPEDFATYYCQQYDSSPLTFGQGTKVEIK , state whether its % binding (parent = 100) is at least 40%. condition met

Given CFP0015 15L 53S (antibody, V domains shown) VH: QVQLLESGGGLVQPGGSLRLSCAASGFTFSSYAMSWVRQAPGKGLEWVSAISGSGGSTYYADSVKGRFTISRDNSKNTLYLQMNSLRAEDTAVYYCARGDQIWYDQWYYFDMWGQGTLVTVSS VL: DIQMTQSPSSLSASVGDRVTITCRASQSIEDDLAWYQQKPGKAPKLLIYEASSLQSGVPSRFSGSGSGTDFTLTISSLQPEDFATYYCQQYDSSPLTFGQGTKVEIK , state whether its % binding (parent = 100) is at least 40%. condition met
